target: T1, human c-Met (HGFR), full length, on the cell surface (human, UniProt P08581 25-1390); experiment: flow cytometry, MKN45 cells, without HGF
T1 construct: Endogenous c-Met on human tumor cell lines MKN45, NCI-H596, PC-3 and HepG2; also called hepatocyte growth factor receptor; mesenchymal-epithelial transition factor
T1 sequence (P08581 25-1390 limits assumed): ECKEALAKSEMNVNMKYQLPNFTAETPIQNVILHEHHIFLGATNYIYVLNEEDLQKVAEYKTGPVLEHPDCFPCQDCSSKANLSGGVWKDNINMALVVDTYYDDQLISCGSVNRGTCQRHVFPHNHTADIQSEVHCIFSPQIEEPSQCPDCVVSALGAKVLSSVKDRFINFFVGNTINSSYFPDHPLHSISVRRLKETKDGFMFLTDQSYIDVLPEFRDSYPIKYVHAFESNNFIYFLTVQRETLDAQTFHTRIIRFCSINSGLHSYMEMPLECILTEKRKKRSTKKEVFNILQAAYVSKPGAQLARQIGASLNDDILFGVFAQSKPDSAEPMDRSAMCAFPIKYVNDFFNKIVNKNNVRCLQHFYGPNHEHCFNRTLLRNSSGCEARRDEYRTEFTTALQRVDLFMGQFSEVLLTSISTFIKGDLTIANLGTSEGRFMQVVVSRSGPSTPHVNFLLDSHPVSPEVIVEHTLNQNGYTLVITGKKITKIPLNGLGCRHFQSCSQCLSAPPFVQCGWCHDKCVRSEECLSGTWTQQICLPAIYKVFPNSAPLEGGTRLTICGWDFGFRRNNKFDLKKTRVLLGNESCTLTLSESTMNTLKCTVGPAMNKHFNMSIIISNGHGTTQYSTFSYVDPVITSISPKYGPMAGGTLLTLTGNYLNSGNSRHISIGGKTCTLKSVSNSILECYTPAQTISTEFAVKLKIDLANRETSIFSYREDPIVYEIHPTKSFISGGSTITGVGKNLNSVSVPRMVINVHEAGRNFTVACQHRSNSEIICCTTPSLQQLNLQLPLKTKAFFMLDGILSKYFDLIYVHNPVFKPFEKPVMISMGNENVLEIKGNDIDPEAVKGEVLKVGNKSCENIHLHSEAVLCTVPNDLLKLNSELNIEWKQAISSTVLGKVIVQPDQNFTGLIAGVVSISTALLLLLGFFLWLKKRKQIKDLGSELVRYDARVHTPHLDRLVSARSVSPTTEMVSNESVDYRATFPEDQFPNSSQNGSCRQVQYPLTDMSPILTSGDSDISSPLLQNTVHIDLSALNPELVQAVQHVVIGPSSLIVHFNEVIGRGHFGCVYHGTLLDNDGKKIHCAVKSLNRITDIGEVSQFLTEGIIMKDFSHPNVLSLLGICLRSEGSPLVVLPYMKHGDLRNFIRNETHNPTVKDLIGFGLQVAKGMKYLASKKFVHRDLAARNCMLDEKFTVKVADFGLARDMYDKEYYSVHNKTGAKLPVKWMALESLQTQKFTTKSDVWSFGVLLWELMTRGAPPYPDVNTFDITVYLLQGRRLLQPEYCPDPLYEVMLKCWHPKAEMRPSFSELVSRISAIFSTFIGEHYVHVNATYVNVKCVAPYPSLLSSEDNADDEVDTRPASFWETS
Recorded EC50 values for a group of binders are listed next.
Form entry: value (µg/mL) — number only.

Recorded results for 5 binders are shown here.
mAb1a (antibody, human IgG1, kappa, V domains shown, Humanized IgG1 kappa, HC-41C, from wt/41C-chi-mAb1; also called humanized HC-41C antibody mAb1a; mAbla) VH: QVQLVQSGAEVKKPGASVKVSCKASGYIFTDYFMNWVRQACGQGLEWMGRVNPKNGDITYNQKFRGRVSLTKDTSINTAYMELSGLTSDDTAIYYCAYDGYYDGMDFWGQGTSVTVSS VL: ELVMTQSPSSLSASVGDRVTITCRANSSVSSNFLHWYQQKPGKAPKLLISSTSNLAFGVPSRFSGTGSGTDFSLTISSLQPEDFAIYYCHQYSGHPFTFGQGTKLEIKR    0.16
mAb3b (antibody, human IgG1, kappa, V domains shown, Humanized IgG1 kappa, HC-41C, from wt/41C-chi-mAb3; also called humanized HC-41C antibody mAb3b) VH: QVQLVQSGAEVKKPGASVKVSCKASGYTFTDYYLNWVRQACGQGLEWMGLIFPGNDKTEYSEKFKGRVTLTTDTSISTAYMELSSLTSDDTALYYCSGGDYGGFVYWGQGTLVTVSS VL: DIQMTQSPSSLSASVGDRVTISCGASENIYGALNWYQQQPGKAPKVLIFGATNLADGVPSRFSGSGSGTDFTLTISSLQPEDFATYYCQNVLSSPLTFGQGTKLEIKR    0.06
mAb3d (antibody, human IgG1, kappa, V domains shown, Humanized IgG1 kappa, HC-41C, from wt/41C-chi-mAb3; also called humanized HC-41C antibody mAb3d) VH: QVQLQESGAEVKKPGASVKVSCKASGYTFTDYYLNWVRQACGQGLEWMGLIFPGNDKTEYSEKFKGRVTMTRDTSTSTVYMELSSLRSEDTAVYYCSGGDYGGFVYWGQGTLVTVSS VL: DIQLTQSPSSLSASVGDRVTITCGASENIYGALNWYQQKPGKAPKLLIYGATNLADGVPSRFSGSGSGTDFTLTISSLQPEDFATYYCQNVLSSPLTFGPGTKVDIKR    0.07
mAb3a (antibody, human IgG1, kappa, V domains shown, Humanized IgG1 kappa, HC-41C, from wt/41C-chi-mAb3; also called humanized HC-41C antibody mAb3a) VH: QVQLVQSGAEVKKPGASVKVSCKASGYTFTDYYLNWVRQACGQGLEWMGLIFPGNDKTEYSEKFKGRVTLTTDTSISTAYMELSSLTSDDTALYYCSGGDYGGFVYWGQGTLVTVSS VL: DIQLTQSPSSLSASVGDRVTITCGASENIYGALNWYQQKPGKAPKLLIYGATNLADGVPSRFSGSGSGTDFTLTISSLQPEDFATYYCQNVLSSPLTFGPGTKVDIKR    0.07
mAb2a (antibody, human IgG1, kappa, V domains shown, Humanized IgG1 kappa, HC-41C, from wt/41C-chi-mAb2; also called humanized HC-41C antibody mAb2a) VH: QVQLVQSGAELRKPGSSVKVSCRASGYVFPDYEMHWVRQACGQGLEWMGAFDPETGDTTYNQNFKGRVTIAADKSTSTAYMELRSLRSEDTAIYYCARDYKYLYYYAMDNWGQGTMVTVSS VL: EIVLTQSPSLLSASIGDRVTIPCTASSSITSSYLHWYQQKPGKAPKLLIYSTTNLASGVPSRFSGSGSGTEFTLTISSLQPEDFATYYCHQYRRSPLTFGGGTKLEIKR    0.09

# next binder below
Please report the recorded EC50 for mAb3e (antibody, human IgG1, kappa, V domains shown, Humanized IgG1 kappa, HC-41C, from wt/41C-chi-mAb3; also called humanized HC-41C antibody mAb3e) VH: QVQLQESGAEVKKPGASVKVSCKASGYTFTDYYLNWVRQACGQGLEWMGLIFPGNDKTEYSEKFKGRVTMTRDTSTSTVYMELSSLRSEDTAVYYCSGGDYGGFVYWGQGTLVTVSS VL: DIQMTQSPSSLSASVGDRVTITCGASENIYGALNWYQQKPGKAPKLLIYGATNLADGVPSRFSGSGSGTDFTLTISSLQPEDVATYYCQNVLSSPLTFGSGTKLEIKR . 0.07
